# MEASURED TARGET: PAR2 (HT-29 cells) (Homo sapiens)
# Construct: host or cells: HT-29
# Sequence (P55085 26-397): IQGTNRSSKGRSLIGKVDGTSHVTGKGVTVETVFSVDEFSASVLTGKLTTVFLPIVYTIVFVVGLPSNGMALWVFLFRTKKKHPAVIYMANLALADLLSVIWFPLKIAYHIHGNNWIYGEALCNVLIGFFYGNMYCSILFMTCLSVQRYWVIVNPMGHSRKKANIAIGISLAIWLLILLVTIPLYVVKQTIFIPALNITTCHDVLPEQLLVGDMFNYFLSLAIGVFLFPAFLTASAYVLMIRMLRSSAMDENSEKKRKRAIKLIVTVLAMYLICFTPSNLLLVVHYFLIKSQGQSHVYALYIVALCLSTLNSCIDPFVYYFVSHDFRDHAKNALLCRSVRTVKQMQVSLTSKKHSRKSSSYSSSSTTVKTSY
# MEASUREMENT PROTOCOL: Ca FLIPR TETRA assay, ANTAGONIST mode, activator 3.1 U/mL trypsin
# Format: cell-based
# TEST CONTEXT: HT-29 cells, activator 3.1 U/mL trypsin; maximal antagonist concentration per Method (A: 0.1, 1 or 2 μM; B: 50 μM)
ATTRIBUTE MEASURED: IC50 (nM)

>>> observed_result("Cc1nnc(C(=O)N2CCN(C(=O)c3cc4nc(-c5ccc(F)c(C)c5)cc(C(C)(C)C)c4o3)C(C)(C)C2)[nH]1")
3.3

[A] C[C@H]1CN(C(=O)c2cc3nc(-c4ccc(F)cc4)cc(C4(C)CC4)c3o2)CCN1C(=O)C(O)C1CC1 (stereo partly drawn)
[B] CCc1cc(-c2ccc(F)cc2)nc2cc(C(=O)N3CCN(C(=O)[C@H]4C[C@](O)(C(F)(F)F)C4)CC3(C)C)oc12
Inquiry: Which is greater in IC50, the first item A or the second item B ? Selection: enter the item's label.
Reply text: A

====

# MEASURED TARGET: PAR2 (HT-29 cells) (Homo sapiens)
# Construct: host or cells: HT-29
# MEASUREMENT PROTOCOL: Ca FLIPR TETRA assay, ANTAGONIST mode, activator 8 μM SLIGKV
# Type: cell-based
# TEST CONTEXT: HT-29 cells, activator 8 μM SLIGKV; maximal antagonist concentration per Method (A: 0.1, 1 or 2 μM; B: 50 μM)
pIC50: −log10 of the molar value.
ATTRIBUTE MEASURED: pIC50

These recorded examples may help you get a feel for the data.
>>> observed_result("CC(C)(C)c1cc(-c2ccc(F)cc2)nc2cc(C(=O)N3CCN(C(=O)C4(C(N)=O)CC4)CC3(C)C)oc12")
7.77
>>> observed_result("CC(C)(C)c1cc(-c2ccc(Cl)cc2)nc2cc(C(=O)N3CCN(C(=O)C4CCC(C(=O)O)O4)CC3(C)C)oc12 (stereo not drawn)")
7.66
>>> observed_result("CC(C)(C)c1cc(-c2ccc(Cl)c(F)c2)nc2cc(C(=O)N3CCN(c4nc(C(=O)O)co4)CC3(C)C)oc12 [Example I-289]")
10.00
>>> observed_result("CC(C)(C)c1cc(-c2ccc(F)cc2)nc2cc(C(=O)N3CCN(C(=O)c4n[nH]c(=O)[nH]4)CC3(C)C)oc12")
8.00
>>> observed_result("C[C@H]1CN(C(=O)c2cc3nc(-c4ccc(F)cc4)cc(C4(C)CC4)c3o2)CCN1C(=O)C1(O)CCOCC1")
5.96
>>> observed_result("Cc1cc(-c2cc(C(C)(C)C)c3oc(C(=O)N4CCN(C(=O)[C@H]5C[C@@](C)(O)C5)CC4(C)C)cc3n2)ccc1F")
8.54

[a] CC(C)c1cc(-c2ccc(F)cc2)nc2sc(C(=O)N3CCNC(=O)C3(C)C)nc12
[b] CC(C)c1cc(-c2ccc(F)cc2)nc2cc(C(=O)N3CCN(C(=O)C(C)(C)F)CC3(C)C)oc12
[c] CC(C)c1cc(-c2ccc(F)cc2)nc2cc(C(=O)N3CCN(C(=O)C4(O)CCC4)C[C@H]3C)oc12
[d] Cc1cc(-c2cc(C(C)(C)C)c3oc(C(=O)N4CCN(c5cn[nH]c5)C(=O)C4(C)C)cc3n2)ccc1Cl
[e] CCC(O)(CC)C(=O)N1CCN(C(=O)c2cc3nc(-c4ccc(F)cc4)cc(C(C)C)c3o2)C(C)(C)C1
Inquiry: Task for the reader: rank each entry by its pIC50, from the minimum upward. Please respond with the labels ordered as the question requires.
Reply text: c, a, e, d, b

[I] CC(C)(C)c1cc(-c2ccc(Cl)c(F)c2)nc2cc(C(=O)N3CCN(c4ccnc(C(=O)O)c4)CC3(C)C)oc12
[II] CC(C)(C)c1cc(C2CCCCCC2)nc2cc(C(=O)N3CCNC(=O)C3(C)C)oc12
Inquiry: Would you let me know which has the greater pIC50 value, I or II ? The response must carry the label of the picked entry.
Reply text: II
(II: 7.57, I: 7.35)

[1] CC(C)c1nc(-c2ccc(F)cc2)nc2cc(C(=O)N3CCN(C(=O)[C@H](O)CC(C)(C)C)[C@@H](C)C3)oc12
[2] CC(C)c1cc(-c2ccc(F)cc2)nc2cc(C(=O)N3CCN(C(=O)[C@H](O)CC(C)(C)C)C[C@@H]3C)oc12
Inquiry: Between 1 and 2 , which one has the lower reported pIC50 value? Indicate your choice by writing its label.
Reply text: 2

[I] [2H]C([2H])([2H])N1CCN(C(=O)c2cc3nc(-c4ccc(F)c(Cl)c4)cc(C(C)(C)C)c3o2)C(C)(C)C1=O
[II] Cc1nnc(C(=O)N2CCN(C(=O)c3cc4nc(-c5ccc(C(F)(F)F)cc5)cc(C(C)(C)C)c4o3)C(C)(C)C2)[nH]1
[III] CC#CC(=O)N1CCN(C(=O)c2cc3nc(-c4ccc(F)cc4)cc(C(C)C)c3o2)C(C)(C)C1
[IV] CC(C)(C)c1cc(C2CCC(F)(F)CC2)nc2cc(C(=O)N3CCN(C(=O)CNS(C)(=O)=O)C(=O)C3(C)C)oc12
Inquiry: Please give the order of these molecules when sorted by pIC50, largest value leading. Record the ranking as a list of labels in the requested order.
Reply text: II, I, III, IV
(II: 8.72, I: 8.21, III: 7.96, IV: 6.56)

[A] CC(C)c1cc(-c2ccc(F)cc2)nc2cc(C(=O)N3CCN(C(=O)C4CC4(C)C)CC3(C)C)oc12 (stereo not drawn)
[B] CC(C)c1cc(-c2ccc(F)cc2)nc2cc(C(=O)N3CCN(C(=O)C4(O)CCC4)CC3(C)C)oc12
Inquiry: Response body: label of entry with the larger pIC50; valid values A , B . Identify your pick by its label.
Reply text: A

[a] CC(C)(C)c1cc(-c2ccc(F)cc2)nc2cc(C(=O)N3CCN(CC(=O)O)C(=O)C3(C)C)oc12
[b] Cc1nccnc1N1CCN(C(=O)c2cc3nc(-c4ccc(Cl)cc4)cc(C(C)(C)C)c3o2)C(C)(C)C1
[c] CC(C)(C)c1cc(C2CC3(CCC3)C2)nc2cc(C(=O)N3CCN(C(=O)[C@H]4CC[C@@](C)(C(=O)O)CC4)CC3(C)C)oc12
[d] CC(C)c1cc(-c2ccc(F)cc2)nc2cc(C(=O)N3CCN(C(=O)[C@@H](C)O)C[C@@H]3C)oc12
Inquiry: Rank order required: pIC50, descending. # the answer lists labels in the order requested
Reply text: c, b, a, d
(c: 9.70, b: 7.44, a: 6.66, d: 5.10)

Just for reference, patent US20180057505A1 is where these values come from.
